- experimentalSystem: PgAgD (agmatine deiminase from P. gingivalis) (Porphyromonas gingivalis, UniProt Q7MXM8)
pIC50 listing for selected molecules.
pIC50 is a log-scale quantity: -log10 of the concentration expressed in molar.

N=C(CCl)NCCCCN [ABCA, N-(4-aminobutyl)-2-chloro-ethanimidamide] | 4.82

Next molecule, please.
(Q) State, for PgAgD (agmatine deiminase from P. gingivalis) (Porphyromonas gingivalis, UniProt Q7MXM8), measured pIC50 of the molecule listed here: N=C(CF)NCCCCN [ABFA, N-(4-aminobutyl)-2-fluoro-ethanimidamide]
(A) 4.04

====

- experimentalSystem: SmAgD (agmatine deiminase from S. mutans) (Streptococcus mutans serotype c, UniProt Q8DW17)
- Sequence (Q8DW17 whole entry): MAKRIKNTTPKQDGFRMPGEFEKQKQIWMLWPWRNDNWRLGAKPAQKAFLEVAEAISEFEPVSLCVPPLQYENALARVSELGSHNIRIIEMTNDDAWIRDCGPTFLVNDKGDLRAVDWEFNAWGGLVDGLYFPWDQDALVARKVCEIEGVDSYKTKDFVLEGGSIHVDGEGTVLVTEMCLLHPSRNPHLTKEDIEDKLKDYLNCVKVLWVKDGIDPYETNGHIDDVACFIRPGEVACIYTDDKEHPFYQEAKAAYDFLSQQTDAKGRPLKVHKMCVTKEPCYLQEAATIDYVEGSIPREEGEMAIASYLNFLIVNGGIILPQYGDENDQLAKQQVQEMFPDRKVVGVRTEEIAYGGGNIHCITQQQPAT
propertyLabel: IC50
Remember to follow the number with its unit.

(Q) Check the records and state IC50 for N=C(CF)NCCCCN [ABFA, N-(4-aminobutyl)-2-fluoro-ethanimidamide]
(A) 270 nM
